Taken from the supplement of paper PMC11246515.

Experiment: total protein half-life in vivo (active degradation + dilution); higher = more stable protein
Conditions: wild type E. coli NCM3722; growth: C-lim chemostat; doubling time 3 h

[
  {
    "RESIDUE STRING": "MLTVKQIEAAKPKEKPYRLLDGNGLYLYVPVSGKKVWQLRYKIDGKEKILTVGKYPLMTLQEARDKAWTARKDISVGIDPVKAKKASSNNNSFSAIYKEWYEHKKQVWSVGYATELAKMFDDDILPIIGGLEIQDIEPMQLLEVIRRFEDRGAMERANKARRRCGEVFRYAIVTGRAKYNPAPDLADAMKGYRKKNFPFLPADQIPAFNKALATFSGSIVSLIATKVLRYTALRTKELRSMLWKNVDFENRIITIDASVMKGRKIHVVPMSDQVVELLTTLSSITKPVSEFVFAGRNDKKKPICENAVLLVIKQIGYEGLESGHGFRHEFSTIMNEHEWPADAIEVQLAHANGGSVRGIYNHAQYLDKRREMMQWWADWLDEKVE",
    "total protein half-life in vivo [h]": 3.12
  }
]

----------
Experiment: total protein half-life in vivo (active degradation + dilution); higher = more stable protein
Conditions: wild type E. coli NCM3722; growth: P-lim chemostat; doubling time 6 h

[
  {
    "RESIDUE STRING": "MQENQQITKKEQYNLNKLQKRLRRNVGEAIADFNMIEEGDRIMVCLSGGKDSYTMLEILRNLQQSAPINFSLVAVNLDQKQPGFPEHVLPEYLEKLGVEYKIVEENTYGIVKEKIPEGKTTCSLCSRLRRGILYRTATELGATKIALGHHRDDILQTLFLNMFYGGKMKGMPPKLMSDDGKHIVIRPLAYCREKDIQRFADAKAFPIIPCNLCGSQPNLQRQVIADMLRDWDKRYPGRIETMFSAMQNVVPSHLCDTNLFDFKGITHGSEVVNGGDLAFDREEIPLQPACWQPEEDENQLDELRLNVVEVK",
    "total protein half-life in vivo [h]": 2.23
  },
  {
    "RESIDUE STRING": "MKKNQFLKESDVTAESVFFMKRRQVLKALGISATALSLPHAAHADLLSWFKGNDRPPAPAGKALEFSKPAAWQNNLPLTPADKVSGYNNFYEFGLDKADPAANAGSLKTDPWTLKISGEVAKPLTLDHDDLTRRFPLEERIYRMRCVEAWSMVVPWIGFPLHKLLALAEPTSNAKYVAFETIYAPEQMPGQQDRFIGGGLKYPYVEGLRLDEAMHPLTLMTVGVYGKALPPQNGAPVRLIVPWKYGFKGIKSIVSIKLTRERPPTTWNLAAPDEYGFYANVNPYVDHPRWSQATERFIGSGGILDVQRQPTLLFNGYAAQVASLYRGLDLRENF",
    "total protein half-life in vivo [h]": 5.91
  },
  {
    "RESIDUE STRING": "MKLDEIARLAGVSRTTASYVINGKAKQYRVSDKTVEKVMAVVREHNYHPNAVAAGLRAGRTRSIGLVIPDLENTSYTRIANYLERQARQRGYQLLIACSEDQPDNEMRCIEHLLQRQVDAIIVSTSLPPEHPFYQRWANDPFPIVALDRALDREHFTSVVGADQDDAEMLAEELRKFPAETVLYLGALPELSVSFLREQGFRTAWKDDPREVHFLYANSYEREAAAQLFEKWLETHPMPQALFTTSFALLQGVMDVTLRRDGKLPSDLAIATFGDNELLDFLQCPVLAVAQRHRDVAERVLEIVLASLDEPRKPKPGLTRIKRNLYRRGVLSRS [P0ACP1]",
    "total protein half-life in vivo [h]": 5.6
  },
  {
    "RESIDUE STRING": "MQSVDVAIVGGGMVGLAVACGLQGSGLRVAVLEQRVQEPLAANAPPQLRVSAINAASEKLLTRLGVWQDILSRRASCYHGMEVWDKDSFGHISFDDQSMGYSHLGHIVENSVIHYALWNKAHQSSDITLLAPAELQQVAWGENETFLTLKDGSMLTARLVIGADGANSWLRNKADIPLTFWDYQHHALVATIRTEEPHDAVARQVFHGEGILAFLPLSDPHLCSIVWSLSPEEAQRMQQASEDEFNRALNIAFDNRLGLCKVESARQVFPLTGRYARQFASHRLALVGDAAHTIHPLAGQGVNLGFMDAAELIAELKRLHRQGKDIGQYIYLRRYERSRKHSAALMLAGMQGFRDLFSGTNPAKKLLRDIGLKLADTLPGVKPQLIRQAMGLNDLPEWLR",
    "total protein half-life in vivo [h]": 3.16
  },
  {
    "RESIDUE STRING": "MIGRLLRGGFMTAIYAYLYIPIIILIVNSFNSSRFGINWQGFTTKWYSLLMNNDSLLQAAQHSLTMAVFSATFATLIGSLTAVALYRYRFRGKPFVSGMLFVVMMSPDIVMAISLLVLFMLLGIQLGFWSLLFSHITFCLPFVVVTVYSRLKGFDVRMLEAAKDLGASEFTILRKIILPLAMPAVAAGWVLSFTLSMDDVVVSSFVTGPSYEILPLKIYSMVKVGVSPEVNALATILLVLSLVMVIASQLIARDKTKGNTGDVK [P0AFK6]",
    "total protein half-life in vivo [h]": 6.27
  },
  {
    "RESIDUE STRING": "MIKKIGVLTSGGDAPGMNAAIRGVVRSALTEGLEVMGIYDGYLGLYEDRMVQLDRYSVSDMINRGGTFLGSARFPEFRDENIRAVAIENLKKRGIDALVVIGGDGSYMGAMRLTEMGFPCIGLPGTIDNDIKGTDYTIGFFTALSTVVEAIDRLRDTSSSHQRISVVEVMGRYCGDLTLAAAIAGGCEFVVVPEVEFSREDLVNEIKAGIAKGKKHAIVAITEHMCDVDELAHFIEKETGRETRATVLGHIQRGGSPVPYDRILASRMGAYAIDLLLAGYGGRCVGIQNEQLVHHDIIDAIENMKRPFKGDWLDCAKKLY [P0A796]",
    "total protein half-life in vivo [h]": 5.69
  },
  {
    "RESIDUE STRING": "MKEKTIIIVGGGQAAAMAAASLRQQGFTGELHLFSDERHLPYERPPLSKSMLLEDSPQLQQVLPANWWQENNVHLHSGVTIKTLGRDTRELVLTNGESWHWDQLFIATGAAARPLPLLDALGERCFTLRHAGDAARLREVLQPERSVVIIGAGTIGLELAASATQRRCKVTVIELAATVMGRNAPPPVQRYLLQRHQQAGVRILLNNAIEHVVDGEKVELTLQSGETLQADVVIYGIGISANEQLAREANLDTANGIVIDEACRTCDPAIFAGGDVAITRLDNGALHRCESWENANNQAQIAAAAMLGLPLPLLPPPWFWSDQYSDNLQFIGDMRGDDWLCRGNPETQKAIWFNLQNGVLIGAVTLNQGREIRPIRKWIQSGKTFDAKLLIDENIALKSL",
    "total protein half-life in vivo [h]": 1.03
  },
  {
    "RESIDUE STRING": "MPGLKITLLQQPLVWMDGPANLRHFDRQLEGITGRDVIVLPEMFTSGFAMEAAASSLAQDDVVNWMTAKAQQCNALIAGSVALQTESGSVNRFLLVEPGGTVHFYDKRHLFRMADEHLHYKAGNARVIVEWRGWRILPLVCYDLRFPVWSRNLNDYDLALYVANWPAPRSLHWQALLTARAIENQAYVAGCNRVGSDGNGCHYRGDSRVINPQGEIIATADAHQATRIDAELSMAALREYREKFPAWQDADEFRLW",
    "total protein half-life in vivo [h]": 5.74
  },
  {
    "RESIDUE STRING": "MMNSTNKLSVIIPLYNAGDDFRTCMESLITQTWTALEIIIINDGSTDNSVEIAKYYAENYPHVRLLHQANAGASVARNRGIEVATGKYVAFVDADDEVYPTMYETLMTMALEDDLDVAQCNADWCFRETGETWQSIPTDRLRSTGVLTGPDWLRMGLSSRRWTHVVWMGVYRRDVIVKNNIKFIAGLHHQDIVWTTEFMFNALRARYTEQSLYKYYLHNTSVSRLHRQGNKNLNYQRHYIKITRLLEKLNRNYADKIMIYPEFHQQITYEALRVCHAVRKEPDILTRQRMIAEIFTSGMYKRLITNVRSVKVGYQALLWSFRLWQWRDKTRSHHRITRSAFNLR",
    "total protein half-life in vivo [h]": 0.32
  }
]

----------
// reported total protein half-life in vivo per item
Assay: total protein half-life in vivo (active degradation + dilution); higher = more stable protein
Settings: E. coli NCM3722 delta-lon; growth: N-lim chemostat; doubling time 6 h

[
  {
    "RESIDUE STRING": "MNMKLKTLFAAAFAVVGFCSTASAVTYPLPTDGSRLVGQNQVITIPEGNTQPLEYFAAEYQMGLSNMMEANPGVDTFLPKGGTVLNIPQQLILPDTVHEGIVINSAEMRLYYYPKGTNTVIVLPIGIGQLGKDTPINWTTKVERKKAGPTWTPTAKMHAEYRAAGEPLPAVVPAGPDNPMGLYALYIGRLYAIHGTNANFGIGLRVSHGCVRLRNEDIKFLFEKVPVGTRVQFIDEPVKATTEPDGSRYIEVHNPLSTTEAQFEGQEIVPITLTKSVQTVTGQPDVDQVVLDEAIKNRSGMPVRLN [P0AAX8]",
    "total protein half-life in vivo (h)": 6.15
  },
  {
    "RESIDUE STRING": "METRREERIGQLLQELKRSDKLHLKDAAALLGVSEMTIRRDLNNHSAPVVLLGGYIVLEPRSASHYLLSDQKSRLVEEKRRAAKLAATLVEPDQTLFFDCGTTTPWIIEAIDNEIPFTAVCYSLNTFLALKEKPHCRAFLCGGEFHASNAIFKPIDFQQTLNNFCPDIAFYSAAGVHVSKGATCFNLEELPVKHWAMSMAQKHVLVVDHSKFGKVRPARMGDLKRFDIVVSDCCPEDEYVKYAQTQRIKLMY [P0ACK5]",
    "total protein half-life in vivo (h)": 6.9
  },
  {
    "RESIDUE STRING": "MPPRRYNPDTRRDELLERINLDIPGAVAQALREDLGGTVDANNDITAKLLPENSRSHATVITRENGVFCGKRWVEEVFIQLAGDDVTIIWHVDDGDVINANQSLFELEGPSRVLLTGERTALNFVQTLSGVASKVRHYVELLEGTNTQLLDTRKTLPGLRSALKYAVLCGGGANHRLGLSDAFLIKENHIIASGSVRQAVEKASWLHPDAPVEVEVENLEELDEALKAGADIIMLDNFETEQMREAVKRTNGKALLEVSGNVTDKTLREFAETGVDFISVGALTKHVQALDLSMRFR",
    "total protein half-life in vivo (h)": 6.13
  }
]
